tested on: OVCAR-3 ovarian; test: NCI tumour cell line growth inhibition, 48 h
Record form. Attribute: TGI. Fill in for each entry.
Numbers only, in µM.

Examples from the recorded data:
[
  {
    "Chemical String": "CCCCCCCCCC(=O)N[C@@H](c1ccco1)[C@@H](O)C(=O)O[C@H]1C[C@@]2(O)[C@@H](OC(=O)c3ccccc3)[C@@H]3[C@]4(OC(C)=O)CO[C@@H]4C[C@H](O)[C@@]3(C)C(=O)[C@H](OC(C)=O)C(=C1C)C2(C)C",
    "Test Target": "OVCAR-3 ovarian",
    "TGI (µM)": 3.48
  },
  {
    "Chemical String": "O=C(Nc1ccc(F)cc1F)c1cc(Cl)ccc1O",
    "Test Target": "OVCAR-3 ovarian",
    "TGI (µM)": 16.8
  }
]

Kindly consider the entry below.
Given the entry CN(C)CCNC(=O)c1cccc2cc3cc(O)ccc3nc12 , report its measured TGI.
3.61

###

Record form. Attribute: TGI. Fill in for each entry.
system: SF-539 CNS; test: NCI tumour cell line growth inhibition, 48 h

Examples from the recorded data:
[
  {
    "Compound": "CN(Cc1ccc(C(F)(F)F)cc1)CC(O)C(=O)Nc1ccc(Cl)cc1 (stereo unspecified)",
    "TGI": "3.24 µM"
  },
  {
    "Compound": "N#C/C(=C\\c1cccc(O)c1O)C(N)=O",
    "TGI": "> 100 µM"
  },
  {
    "Compound": "CCOc1ccc(N=NC2C(=O)N(C(=O)CC(=O)Nc3ccccc3)N=C2C)cc1 (stereo unspecified)",
    "TGI": "> 100 µM"
  }
]

For every item in the list below, what is its measured TGI?
1. NS(=O)(=O)c1ccc(N2N=C3c4ccccc4CC3C2c2cccs2)cc1 (stereo unspecified)
2. C#CCNC(=O)ON1C(=O)CCC1=O
3. C[Si](C)(C)C(CCCCSc1ccccc1)(Sc1ccccc1)Sc1ccccc1

1. 48.1 µM
2. > 100 µM
3. > 100 µM

###

test system: 786-0 renal; experiment: NCI tumour cell line growth inhibition, 48 h; in the data active means GI50 below about 0.43 µM; inactive means the rest
// classify into active, inactive

[
  {
    "Chemical String": "NS(=O)(=O)c1ccc(N=Nc2c(O)[nH]c3ccc(C(=O)NCc4ccncc4)cc23)cc1",
    "Assigned Category": "inactive"
  },
  {
    "Chemical String": "CCOC(=O)c1c(C)n(Cc2ccc(Cl)cc2Cl)c2c1cc1oc(=O)c(=O)n3cnc2c13",
    "Assigned Category": "inactive"
  },
  {
    "Chemical String": "O=c1c2cc(-c3ccccc3)sc2ncn1Cc1ccc(Cl)c(Cl)c1",
    "Assigned Category": "inactive"
  }
]

Recorded call for CC[C@@]1(OC(=O)CN)C(=O)OCc2c1cc1n(c2=O)Cc2c-1nc1cc3c(cc1c2CCl)OCO3 ?
active

Recorded call for O=C(Nc1ccc(-n2ccc3c(NC(=O)c4ccccc4)ncnc32)cc1)c1cccc(C(F)(F)F)c1 ?
inactive

###

test system: RXF-631 renal; test: NCI tumour cell line growth inhibition, 48 h
Record form. Attribute: TGI. Fill in for each entry.

For every item in the list below, what is its measured TGI?
1. COc1ccc2nc3c(c(NCCCN(C)C)c2c1)CCCC3
2. CC1(C)C2CCC3(OCCO3)C1C(O)C2 (stereo not drawn)
3. CN(C)/C=N\c1ccnc(=O)[nH]1

1: 28.7 µM; 2: > 100 µM; 3: > 100 µM
